assay: osmotic lysis modulators in infected erythrocytes, primary screen, PSAC antagonist project, cell-based, P. falciparum Indochina, OD700, 3 h (AID 1156); conditions: higher = more signal, called active from +8 up or from −8 down
I would appreciate it if you labelled entries yes when z-score is 0.7 or higher, otherwise no.

Compound	Label class
COCCOC(=O)N1C(=O)[C@@]2(c3cc(C#CC4(O)CCCCCC4)ccc31)[C@H](c1ccc(OCCO)cc1)N1[C@H](c3ccccc3)[C@H](c3ccccc3)OC(=O)[C@H]1[C@@H]2C(=O)N1CCN(c2ncccn2)CC1	no
C=CCC(OC(C)=O)[C@@H]1[C@@H](N(Cc2ccc(-c3ccccc3)cc2)C(=O)Cc2ccc(OC)cc2)c2cc(OCCCO)ccc2N1C(=O)Cc1ccc2ccccc2c1 (stereo not given in full)	no
COc1ccc([Si](C)(C)[C@H]2[C@H](CCO)O[C@@]3(C(=O)N(Cc4ccc(N(C=O)c5ccccc5)cc4)c4ccccc43)[C@@H]2C)cc1	no
CC(C)C(O)C1C=CC2C(=O)NC(=O)C2N1Nc1ccc(Cl)cc1Cl (stereo not given)	no
C=CCNC(=O)[C@@H]1[C@H]2C(=O)O[C@H](c3ccccc3)[C@H](c3ccccc3)N2[C@H](c2ccccc2OCCO)[C@@]12C(=O)N(C(=O)OCCOC)c1ccccc12	no
C=C(C(=O)CC[C@@H](OC(=O)c1cccnc1)c1ccccc1OCCO)C(C)C	yes
CCCC[C@@H]1C[C@H]1[C@@H](NC(=O)c1ccco1)c1ccc(-c2ccccc2)cc1	yes
C=C(COC)/C(=C/C[C@@H](OC(=O)c1ccncc1)c1ccc(CO)o1)c1cc(C(=O)OC)ccc1OC	yes
CCCC[C@@H]1C[C@H]1[C@@H](NC(=O)c1ccco1)c1ccccc1C(F)(F)F	no
COC(=O)C(CC#Cc1ccc2c(c1)[C@]1(C(=O)N2)[C@H](c2ccc(OCCO)cc2)N2[C@H](c3ccccc3)[C@H](c3ccccc3)OC(=O)[C@H]2[C@@H]1C(=O)Nc1nc2ccccc2s1)C(=O)OC	no
